Quick list: growth per entry.
Tested on: IGROV1 ovarian
EXPERIMENT_DESCRIPTION: NCI-60 one-dose screen, 48 h (100 = growth as untreated, 0 = no growth, -100 = all killed)
MEASUREMENT_CONDITIONS: 10 µM unless noted
About 83,000 compounds went through this panel and 20% of them were active in at least one assay; those are over-represented in the sample as a whole.
Lab book: enter the figure in %, no units written.

compound=Nc1[nH]n2cc(-c3ccc(F)cc3)nc2c1N=Nc1ccc(S(N)(=O)=O)cc1 value_units=% value=61.9

Item CC1=C(CCC(C)NCc2ccc(OCCCN3CCCCC3)cc2)C(C)(C)CCC1 (stereo unspecified) : provide growth
-36.6

Item `N#C/C(=C\C=C\c1ccc(-c2cc(Cl)ccc2Cl)o1)c1nc2ccccc2s1` : provide growth
70.6

Item `CCOC(=O)c1c(C)nc2c(c1N)/C(=C/c1ccc(OC)cc1)C(=O)N2Cc1ccccc1` : provide growth
73.3
